# testTarget: Muscarinic acetylcholine receptor M1 (Homo sapiens) (UniProt P11229)
# Sequence (P11229 whole entry, looked up): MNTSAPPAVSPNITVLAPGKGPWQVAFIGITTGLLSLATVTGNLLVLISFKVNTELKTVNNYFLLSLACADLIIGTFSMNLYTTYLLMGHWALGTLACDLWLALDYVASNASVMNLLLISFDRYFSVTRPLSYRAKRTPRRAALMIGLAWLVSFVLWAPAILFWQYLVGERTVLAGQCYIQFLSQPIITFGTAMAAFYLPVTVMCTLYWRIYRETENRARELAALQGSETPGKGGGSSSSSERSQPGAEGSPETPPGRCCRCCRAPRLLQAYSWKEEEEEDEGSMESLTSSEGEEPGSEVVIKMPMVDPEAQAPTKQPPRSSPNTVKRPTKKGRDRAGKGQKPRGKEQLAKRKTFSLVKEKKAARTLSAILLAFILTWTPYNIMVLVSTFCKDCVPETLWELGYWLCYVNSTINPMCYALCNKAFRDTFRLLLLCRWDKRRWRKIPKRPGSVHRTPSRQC
# testDetails: Cholinergic receptor muscarinic 1 (CHRM1) small molecule antagonists, cell-based qHTS assay (AID 1963588); further: nearly all actives have a fitted effect of over 40% in size
# testParameters: CHRM1-CHO antagonist mode, calcium flux fluorescence; series mostly up to 61.5 µM
Inconclusive results are not listed. Active and inactive are the calls of the source. The call rests on the fitted dose curve.
Respond only with the outcome that fits, drawn from true (active), false (inactive)

Examples with answers:
compound=Cc1ccc([N+](=O)[O-])c(C)c1 category=false
compound="CCCCCCC(C)O (stereo unspecified)" category=false
compound=Cc1ccc(O)c(-n2nc3ccccc3n2)c1 category=false
compound=CCCN(CCC)C(=O)SCC category=false
compound=CC1(C)OC(=O)NC1=O category=false
compound=C=CCOC(=O)C(=C)C category=false
compound=CCOCCOCCO category=false
compound=Cc1ccccc1C=O category=false

Assay outcome for CC(CCO)CC(C)(C)C (stereo unspecified) : what was it? false

Status in this test for `O=c1c(O)c(-c2ccc(O)c(O)c2)oc2cc(O)cc(O)c12` ? false

Origin of the recorded values: PubChem BioAssay (Tox21)
